System: K-562 leukemia
ASSAY_METHOD_TEXT: NCI tumour cell line growth inhibition, 48 h; in the data active means GI50 below about 0.43 µM; inactive means the rest
Select the matching outcome among active, inactive

>>> class_name("COc1ccc(-c2cnnn2-c2cc(OC)c3c(c2)OCO3)cc1")
"active"
>>> class_name("C[C@]12CC[C@@H]3c4ccc(O)cc4CC[C@H]3[C@@H]1CC[C@@H]2NS(=O)(=O)c1cccc(C(F)(F)F)c1")
"inactive"
>>> class_name("CN(c1ccc(NC(=O)Nc2ccc(OC(F)(F)F)cc2)cc1)c1ccnc(Nc2cccc(S(N)(=O)=O)c2)n1")
"active"
>>> class_name("Cc1nn(-c2ccccc2)c2c1CC(=O)Nc1ccccc1-2")
"active"
>>> class_name("CCN(CCNc1ccc(C)c2sc3cc(Cl)ccc3c(=O)c12)CC(C)O (centres undefined)")
"inactive"
>>> class_name("COc1ccc(C(=O)/C=C/c2c(C(F)(F)F)nc3sccn23)cc1OC")
"inactive"

In this assay, the call recorded for O=C1c2ccc3c4c5ccc(c24)C(=O)N1CCCOCCCCOCCCNCc1ccc(cc1)CNCCCOCCCCOCCCN(C3=O)C5=O was what?
inactive

In this assay, the call recorded for CS(=O)(=O)c1ccc(-c2cnc(N)c(C(=O)Nc3ccccc3)n2)cc1 was what?
inactive

In this assay, the call recorded for NC(=NC1CCCCCCC1)c1ccc(N2CCN(c3ccc(C(N)=NC4CCCCCCC4)cc3)CC2)cc1 was what?
inactive

----------
System: CAKI-1 renal
ASSAY_METHOD_TEXT: NCI tumour cell line growth inhibition, 48 h; in the data active means GI50 below about 0.43 µM; inactive means the rest
Select the matching outcome among active, inactive

>>> class_name("COc1ccc(C(=O)/C=C/c2c(C(F)(F)F)nc3sccn23)cc1OC")
"inactive"
>>> class_name("Cn1c(=O)c(Oc2ccc(F)cc2F)cc2cnc(NC(CO)CO)nc21")
"inactive"
>>> class_name("COc1ccc(-c2cc(-c3ccccc3)nc(N3CCN(CCNc4ccnc5cc(Cl)ccc45)CC3)n2)cc1")
"inactive"
>>> class_name("CN(C)c1ccc(-c2cc(-c3ccc(Nc4nc(Nc5ccccc5)nc(Nc5ccc(Cl)cc5)n4)cc3)nc(N)n2)cc1")
"inactive"
>>> class_name("Cc1nc2cnc3cc(F)c(-c4ccc(Oc5ncccn5)cc4Cl)cc3c2n1[C@H]1CCN(C(=O)CO)C[C@@H]1F")
"inactive"
>>> class_name("N#Cc1c(N)nc(N2CCOCC2)c(C#N)c1-c1ccc(Cl)cc1")
"inactive"
>>> class_name("CCc1cccc2c3c(sc12)C(c1ccc(Cl)cc1)C(C#N)=C(N)O3 (stereo not drawn)")
"active"
>>> class_name("CCCCCCC#Cc1ccccc1C#CCO")
"inactive"

In this assay, the call recorded for CC(C)(O)C1CCC(Nc2ccc3ncc(-c4cccc(C(F)(F)F)c4)n3n2)CC1 (stereo not drawn) was what?
inactive

In this assay, the call recorded for Cc1nn(-c2ccccc2)c2c1CC(=O)Nc1ccccc1-2 was what?
active

In this assay, the call recorded for Cn1ccc2c(c1=O)C(=O)c1nccc3c1c-2nc1ccccc13 was what?
inactive

In this assay, the call recorded for CCCCCCCCCCCCCCCC[N+](C)(C)CCN(Cc1ccc(OC)cc1)c1ncccn1 was what?
inactive

In this assay, the call recorded for CN(c1ccc(NC(=O)Nc2ccc(OC(F)(F)F)cc2)cc1)c1ccnc(Nc2cccc(S(N)(=O)=O)c2)n1 was what?
inactive

----------
Test system: SNB-78 CNS
ASSAY_METHOD_TEXT: NCI tumour cell line growth inhibition, 48 h
QUANTITY: TGI

Consider the following illustrative entries.
>>> val("CC(/C(=N/NC(=O)C(N)=O)c1c(Cl)ccc(Cl)c1O)C1(O)C(=O)Nc2ccccc21 (stereo not drawn)")
"> 100 µM"
>>> val("O=C1OC(CC(=O)c2ccc(Cl)cc2Cl)C(Cl)=C1Cl (stereo not drawn)")
"> 71.3 µM"
>>> val("NC(=O)NO")
"> 2500 µM"
>>> val("NC1=C(Br)C(=O)c2ncccc2C1=O")
"2.48 µM"
>>> val("Nc1c(Br)c(=O)[nH]c(=O)n1COCCO")
"> 100 µM"
>>> val("COc1ccc(C2C(=O)C(Cl)N2Nc2nc(C)cc(=O)[nH]2)cc1OC (stereo not drawn)")
"> 100 µM"

Supply TGI value. Item: CCc1ccccc1N1CCN(C(=O)c2cc(OC)c(OC)c(OC)c2)CC1
> 100 µM

Supply TGI value. Item: COc1ccc2cc1Oc1ccc(cc1)C[C@@H]1c3cc(c(OC)cc3CCN1C)Oc1c(OC)c(OC)cc3c1[C@@H](C2)N(C)CC3
31.6 µM

Supply TGI value. Item: CCn1c2ccccc2c2ccc3c(c21)C(=O)c1ccccc1C3=O
> 100 µM

Supply TGI value. Item: O=C1/C(=C/c2ccc3c(c2)OCO3)CCC1CN1CCOCC1 (stereo not drawn)
41.8 µM

Supply TGI value. Item: COC(=O)C1=C(C(=O)OC)C2C(C)=CC(C)=CN2C(C#N)=C(SC)S1 (stereo not drawn)
> 100 µM

Supply TGI value. Item: COc1cc(Cl)cc(N(O)C(C)=O)c1OCc1ccccc1
> 100 µM

Supply TGI value. Item: N#C/C(=C1\NN=C(N)C(c2ccc(Cl)cc2)=C1O)c1ccc(Cl)cc1
> 100 µM

----------
Recorded TGI values for a group of molecules are listed next.
System: SK-MEL-28 melanoma
ASSAY_METHOD_TEXT: NCI tumour cell line growth inhibition, 48 h

>>> val("Cc1cccc2c(=O)c3c(O)cc(O)cc3[nH]c12")
"> 10 µM"
>>> val("CC(C)(C)[Si](C)(C)OCC1OC(n2ccc(=O)[nH]c2=O)C(O[Si](C)(C)C(C)(C)C)[C@@]12O[C@H]2C(N)=O (stereo partly drawn)")
"> 100 µM"
>>> val("COc1cc(C[C@H]2C(=O)OC[C@@H]2Cc2ccc(OC)c(OC)c2)cc(OC)c1")
"> 100 µM"
>>> val("COc1ccc2oc(=O)cc(C)c2c1")
"> 100 µM"
>>> val("C/C(=N\\NC(=S)NC1CCCC1)c1ccccn1")
"> 100 µM"

Supply TGI value. Item: C(=Nc1ccc(-c2cc(-c3ccccc3)nc3ccc4ccccc4c23)cc1)c1ccccc1
> 100 µM

Supply TGI value. Item: Cc1cc(C)c2c(c1)Nc1ccccc1P2c1ccccc1 (stereo not drawn)
> 100 µM

Supply TGI value. Item: Cc1cc(C)nc(NC(=S)Nc2ccccc2Cl)c1
> 100 µM

Supply TGI value. Item: Cc1ccc2cc3c(ccc4ccccc43)c3c2c1CC3
> 100 µM

Supply TGI value. Item: O=C1/C(=C/c2ccc([N+](=O)[O-])o2)Oc2ccc(Br)cc21
4.83 µM

----------
Tested on: SF-539 CNS
ASSAY_METHOD_TEXT: NCI tumour cell line growth inhibition, 48 h
Recorded GI50 values for a group of molecules are listed next.

>>> val("CN(C)c1ccc(-c2cc(-c3ccc(Nc4nc(Nc5ccccc5)nc(Nc5ccc(Cl)cc5)n4)cc3)nc(N)n2)cc1")
"5.61 µM"
>>> val("C=CC(=O)N1CCN(c2nc(OC[C@@H]3CCCN3C)nc3c2CCN(c2cccc4cccc(C)c24)C3)C[C@@H]1CC#N")
"1.63 µM"
>>> val("N#Cc1cccc(C(=O)Nc2cccc(NC(=O)c3cccc(C#N)c3)c2)c1")
"57.7 µM"

Supply GI50 value. Item: N#Cc1c(N)nc(N2CCOCC2)c(C#N)c1-c1ccc(Cl)cc1
49 µM

Supply GI50 value. Item: C[C@H]1[C@H](C)CC[C@]2(C(=O)N3CCN(C)CC3)CC[C@]3(C)C(=CC[C@@H]4[C@@]5(C)C/C(=C/c6cccnc6)C(=O)C(C)(C)[C@@H]5CC[C@]43C)[C@H]12
1.44 µM

Supply GI50 value. Item: NC(=O)c1cc([N+](=O)[O-])c(Cl)c([N+](=O)[O-])c1
2.02 µM

----------
System: HL-60(TB) leukemia
ASSAY_METHOD_TEXT: NCI tumour cell line growth inhibition, 48 h
Recorded TGI values for a group of molecules are listed next.

Consider the following illustrative entries.
>>> val("O=C1NC(=S)NC(=O)C1C(c1ccc([N+](=O)[O-])cc1)C1C(=O)NC(=S)NC1=O")
"> 100 µM"
>>> val("COc1cc(Cn2c(=S)ss/c2=N\\C(=S)N(C)C)cc(OC)c1OC")
"> 61.5 µM"
>>> val("CCOC(=O)c1sc2nc(SC)nc3c2c1NCN3c1ccc2c(c1)OCCCO2")
"> 100 µM"

Supply TGI value. Item: CCN(CCNc1ccc(C)c2sc3cc(Cl)ccc3c(=O)c12)CC(C)O (stereo not given)
3.35 µM

Supply TGI value. Item: CC(C)(C)[Si](C)(C)OCC1OC(n2ccc(=O)[nH]c2=O)C(O[Si](C)(C)C(C)(C)C)[C@@]12O[C@H]2C(N)=O (stereo not given in full)
> 100 µM

Supply TGI value. Item: C=CN1C(=O)OC[C@@H]1c1ccccc1
> 100 µM

Supply TGI value. Item: CCOC(=O)C1=C(NNC(=O)Cc2ccccc2)CSC1=Nc1ccccc1
> 100 µM

Supply TGI value. Item: Cc1cc(NC(=O)NC(=O)c2ccccc2N)ccc1Oc1ncc(Br)cn1
1.39 µM

Supply TGI value. Item: Cc1ccc2cc3c(ccc4ccccc43)c3c2c1CC3
> 100 µM

Supply TGI value. Item: NC(=O)c1cc([N+](=O)[O-])c(Cl)c([N+](=O)[O-])c1
8.55 µM
